These data points were gathered from patent US20070219234A1.

MEASUREMENT TYPE: melting point

| SMILES CODE | MEASUREMENT TYPE | READOUT VALUE |
| --- | --- | --- |
| NC(=O)c1sc2nccc(N3CCCN(c4ccncc4)CC3)c2c1N | melting point | 288 to 291 °C (dec.) |
| Cc1cccc(N2CCCN(c3ccnc4sc(C(N)=O)c(N)c34)CC2)c1 | melting point | 209 to 212 °C |
| NC(=O)c1sc2nccc(N3CCCN(c4ccc([N+](=O)[O-])cc4)CC3)c2c1N | melting point | 244 to 248 °C |
| Cc1ccc(N2CCCN(c3ccnc4sc(C(N)=O)c(N)c34)CC2)cc1 | melting point | 175 to 176 °C |
| NC(=O)c1sc2nccc(N3CC[S+]([O-])CC3)c2c1N | melting point | 165 to 172 °C |

====

Recorded measurements of melting point, one per entry

| COMPOUND | melting point |
| --- | --- |
| Cc1ccc(N2CCCN(c3ccnc4sc(C(N)=O)c(N)c34)CC2)cc1F [Example 71] | 79 to 83 °C |
| CC(=O)N1CCCN(c2ccnc3sc(C(N)=O)c(N)c23)CC1 [Example 103] | 214 to 215 °C |
| CS(=O)(=O)N1CCCN(c2ccnc3sc(C(N)=O)c(N)c23)CC1 [Example 104] | 214 to 217 °C |
| NC(=O)c1sc2nccc(N3CCCN(c4cccc(C(F)(F)F)c4)CC3)c2c1N [Example 86] | 195 to 197 °C |
| NC(=O)c1sc2nccc(NC3CCCCCC3)c2c1N [Example 12] | 206 to 208 °C |
| NC(=O)c1sc2nccc(N3CCCN(c4ccc(OC(F)(F)F)cc4)CC3)c2c1N [Example 87] | 163 to 165 °C |
| NC(=O)c1sc2nccc(N3CCCC3)c2c1N [Example 13] | 275 to 283 °C |
| CC1CCN(c2ccnc3sc(C(N)=O)c(N)c23)CC1 [Example 15] | 252 to 254 °C |
| NC(=O)c1sc2nccc(N3CCCN(c4nccs4)CC3)c2c1N [Example 97] | 243 to 245 °C |

====

| COMPOUND | melting point |
| --- | --- |
| NC(=O)c1sc2nccc(OCc3ccccc3)c2c1N [Example 110] | 216 to 221 °C |
| CCSc1ccnc2sc(C(N)=O)c(N)c12 [Example 114] | 230 to 235 °C |
| COc1ccc(N2CCCN(c3ccnc4sc(C(N)=O)c(N)c34)CC2)cc1 [Example 58] | 206 to 208 °C |
| NC(=O)c1sc2nccc(N3CCN(c4ccccn4)CC3)c2c1N [Example 45] | 266 to 270 °C |
| NC(=O)c1sc2nccc(N3CCN(c4ccccc4)CC3)c2c1N [Example 42] | 250 to 252 °C |

====

Recorded measurements of melting point, one per entry
MEASUREMENT TYPE: melting point

| MOLECULE | MEASUREMENT TYPE | READOUT VALUE |
| --- | --- | --- |
| NC(=O)c1sc2nccc(NCCCc3ccccc3)c2c1N | melting point | 232 to 234 °C |
| C[C@@H]1CN(c2ccnc3sc(C(N)=O)c(N)c23)C[C@H](C)O1 | melting point | 242 to 244 °C |
| NC(=O)c1sc2nccc(N3CCCN(Cc4ccccc4)CC3)c2c1N | melting point | 194 to 195 °C |
| COc1ccc(N2CCCN(c3ccnc4sc(C(N)=O)c(N)c34)CC2)cn1 | melting point | 170 to 172 °C |
| NC(=O)c1sc2nccc(NCc3ccccc3)c2c1N | melting point | 260 to 262 °C |
| Cl.Cl.NC(=O)c1sc2nccc(N3CCNCC3)c2c1N | melting point | 270 to 280 °C |
| NC(=O)c1sc2nccc(N3CCCN(c4ccc(C(F)(F)F)cc4)CC3)c2c1N | melting point | 204 to 208 °C |
| NC(=O)c1sc2nccc(N3CC=C(c4ccccc4)CC3)c2c1N | melting point | 235 °C (dec.) |
| NC(=O)c1sc2nccc(N3CCC(Cc4ccccc4)CC3)c2c1N | melting point | 220 to 221 °C |
| Cc1ccc(N2CCCN(c3ccnc4sc(C(N)=O)c(N)c34)CC2)cc1C | melting point | 195 to 197 °C |
| NC(=O)c1sc2nccc(N3CCC(c4ccccc4)CC3)c2c1N | melting point | 226 to 233 °C |
| COc1cccc(N2CCCN(c3ccnc4sc(C(N)=O)c(N)c34)CC2)c1 | melting point | 193 to 195 °C |
| CN1CCN(c2ccnc3sc(C(N)=O)c(N)c23)CC1 | melting point | 260 to 263 °C |
| NC(=O)c1sc2nccc(N3CCN(c4ccc(Cl)cc4)CC3)c2c1N | melting point | 297 °C (dec.) |
| CC(C)(C)OC(=O)N1CCCN(c2ccnc3sc(C(N)=O)c(N)c23)CC1 | melting point | 177 to 178 °C |
| NC(=O)c1sc2nccc(SC3CCCCC3)c2c1N | melting point | 195 to 197 °C |
| CC(C)(C)OC(=O)N1CCN(c2ccnc3sc(C(N)=O)c(N)c23)CC1 | melting point | 198 to 203 °C |
| NC(=O)c1sc2nccc(N3CCCC(c4ccccc4)C3)c2c1N (centres unmarked) | melting point | 267 to 269 °C |
| CC(C)(C)CNc1ccnc2sc(C(N)=O)c(N)c12 | melting point | 238 to 240 °C |
| COc1ccccc1N1CCN(c2ccnc3sc(C(N)=O)c(N)c23)CC1 | melting point | 294 °C (dec.) |
